target: Fyn (UniProt P06241); assay: phosphorylation enrichment, bacterial display (enrichment ratio); higher = better substrate or ligand; peptides without Tyr show the background;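 further: 11-residue human phosphosite peptides and single-mutation variants displayed on the E. coli surface, counted by deep sequencing, each peptide's frequency after selection divided by its frequency in the unselected input library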;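 further: frequency after pTyr selection over input frequency; kinase dosed for 20-30% of maximal phosphorylation in three min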
Sequence (P06241 whole entry, looked up): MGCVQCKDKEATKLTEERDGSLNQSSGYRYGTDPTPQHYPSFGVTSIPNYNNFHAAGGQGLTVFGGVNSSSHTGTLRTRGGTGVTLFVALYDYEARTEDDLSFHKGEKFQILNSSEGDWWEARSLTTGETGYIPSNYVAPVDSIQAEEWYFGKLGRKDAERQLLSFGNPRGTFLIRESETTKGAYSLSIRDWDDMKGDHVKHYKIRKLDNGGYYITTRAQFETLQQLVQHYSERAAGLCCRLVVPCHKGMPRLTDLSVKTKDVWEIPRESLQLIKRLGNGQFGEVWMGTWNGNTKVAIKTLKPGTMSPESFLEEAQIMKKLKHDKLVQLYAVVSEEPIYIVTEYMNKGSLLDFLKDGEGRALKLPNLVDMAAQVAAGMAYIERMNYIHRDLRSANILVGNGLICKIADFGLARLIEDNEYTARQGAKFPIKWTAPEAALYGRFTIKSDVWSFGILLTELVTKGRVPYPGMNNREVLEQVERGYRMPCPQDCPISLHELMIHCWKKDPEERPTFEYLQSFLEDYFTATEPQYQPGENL
Property name: phosphorylation enrichment

Known phosphorylation enrichment results, listed for orientation:
Sequence: ARVDTYCRHNF [HLA-DRB1_Y107_A103R_YF]
phosphorylation enrichment: 0.439

Sequence: VLAAQYTTVGR [SGSH_Y240_D235V]
phosphorylation enrichment: 0.367

Sequence: SENYTYIWWLN [PSG4_Y271_K267E]
phosphorylation enrichment: 0.403

Sequence: LDYNEYFRYLN [HPRT1_Y198_D201Y]
phosphorylation enrichment: 1.45

Sequence: RRESQYQENRG [LRCH3_Y354]
phosphorylation enrichment: 0.637

Prompt: Kindly indicate its recorded phosphorylation enrichment. Item: CEHRGFLYLAI [TEK_Y897_Y897F]
Completion: 0.372

Prompt: Kindly indicate its recorded phosphorylation enrichment. Item: HFVFFYSFLLK [PTEN_Y178_R173H_YF]
Completion: 1.07

Prompt: Kindly indicate its recorded phosphorylation enrichment. Item: CLMILHRLKER [PTPRR_Y249_Y249H]
Completion: 0.464

Prompt: Kindly indicate its recorded phosphorylation enrichment. Item: CSHKFYGKQCC [ADAMTS16_Y1211]
Completion: 0.346

Prompt: Kindly indicate its recorded phosphorylation enrichment. Item: FFRDGYMPRQF [GSS_Y270_YF]
Completion: 0.393

Prompt: Kindly indicate its recorded phosphorylation enrichment. Item: KMKGDYYCYLA [YWHAG_Y130_R132C]
Completion: 1.38

Prompt: Kindly indicate its recorded phosphorylation enrichment. Item: EQKKYYNAMKN [SCN5A_Y1495_K1500N]
Completion: 0.292

Prompt: Kindly indicate its recorded phosphorylation enrichment. Item: RLLVVFPWTQR [HBB_Y36_Y36F]
Completion: 0.545

Prompt: Kindly indicate its recorded phosphorylation enrichment. Item: STKELYEKFMI
Completion: 0.724

Prompt: Kindly indicate its recorded phosphorylation enrichment. Item: HKDNNYISMWF [PAPOLG_Y432_V433I]
Completion: 0.934

Prompt: Kindly indicate its recorded phosphorylation enrichment. Item: TQIGQYGNGLK [MORC2_Y100]
Completion: 0.352
